In this section, each of the molecules is paired with its reported cell viability.
test system: U2OS; test: cell viability relative to DMSO; higher = less toxic; details: 72 h; 1000 nM
Reported Endpoint: cell viability (%)

1) CC(C(=O)O)c1cccc(Oc2ccccc2)c1 (configuration not stated) = 103
2) C#Cc1cccc2c1c(C(=O)c1ccc(Cn3c(C)nc4cnccc43)c(F)c1)cn2C(=O)N(C)C = 98.5
3) COc1ccccc1CC(=N)N1C[C@@H]2C(=O)CCC(c3ccccc3)(c3ccccc3)[C@@H]2C1 = 101
4) CCOc1cc2ncc(C#N)c(Nc3ccc(F)c(Cl)c3)c2cc1NC(=O)/C=C/CN(C)C = 67.7
5) CC(=O)OCC(=O)[C@@]12N=C(C)O[C@@H]1C[C@H]1[C@@H]3CCC4=CC(=O)C=C[C@]4(C)[C@H]3[C@@H](O)C[C@@]12C = 94.4
6) Cc1ccc(-c2cn3c4c(sc3n2)CCCC4)cc1 = 102
7) CC1=C(CC(=O)O)c2cc(F)ccc2/C1=C\c1ccc(S(C)(=O)=O)cc1 = 97.5
8) CCN(CC)CCOC(=O)C1(c2ccc([N+](=O)[O-])cc2)CCCC1 = 94.8
9) CC[C@H](C)[C@@H]([C@@H](CC(=O)N1CCC[C@H]1[C@H](OC)[C@@H](C)C(=O)N[C@@H](Cc1ccccc1)c1nccs1)OC)N(C)C(=O)[C@@H](NC(=O)[C@H](C(C)C)N(C)C)C(C)C = 15.6
10) NC(=O)c1[nH]cnc1O = 96.6
11) CC(=O)OCC(=O)[C@@]12OC3(CCCC3)O[C@@H]1C[C@H]1[C@@H]3CCC4=CC(=O)C=C[C@]4(C)[C@@]3(F)[C@@H](O)C[C@@]12C [amcinonide] = 97.2
12) Cc1cc(NCCO)nc(-c2ccc(Br)cc2)n1 = 95.8
